molecular target: CLK2 kinase (Homo sapiens); test: CLK2 kinase activity assay (Z-lyte FRET); settings: Z-lyte Ser/Thr 6 peptide, 60 μM ATP, 1 h at room temperature;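 further: FRET read-out as coumarin to fluorescein emission ratio, unphosphorylated peptide as 0% and phosphorylated peptide as 100% controls, duplicate reactions, non-linear regression fit of dose-response curves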
Sequence (P49760 whole entry): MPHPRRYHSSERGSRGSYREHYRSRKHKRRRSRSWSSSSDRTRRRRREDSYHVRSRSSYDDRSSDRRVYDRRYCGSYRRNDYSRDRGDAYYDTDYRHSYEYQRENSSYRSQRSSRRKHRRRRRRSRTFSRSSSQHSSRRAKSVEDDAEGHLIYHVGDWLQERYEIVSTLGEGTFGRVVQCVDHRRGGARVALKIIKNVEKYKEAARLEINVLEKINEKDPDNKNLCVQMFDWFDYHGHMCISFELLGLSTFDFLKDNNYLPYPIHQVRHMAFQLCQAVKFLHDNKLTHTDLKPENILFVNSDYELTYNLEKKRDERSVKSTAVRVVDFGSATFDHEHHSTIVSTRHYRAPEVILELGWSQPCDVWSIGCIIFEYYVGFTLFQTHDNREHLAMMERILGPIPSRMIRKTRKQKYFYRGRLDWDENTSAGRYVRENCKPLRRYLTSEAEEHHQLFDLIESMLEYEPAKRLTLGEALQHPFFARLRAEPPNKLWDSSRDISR
Observable: EC50 (nM)
Numbers only, in nM.

Some compounds with known EC50 results, for comparison:
- Chemical Structure: "O=C(Nc1cncc(-c2ccc3[nH]nc(-c4nc5c(-c6ccc(Cl)s6)nccc5[nH]4)c3n2)c1)C1CCC1"
  Value Observed: 8
- Chemical Structure: "O=C(Nc1c[nH]nc1C(=O)Nc1cccnc1)c1cccnc1"
  Value Observed: 23
- Chemical Structure: "O=C(Nc1cncc(-c2cnc3[nH]nc(-c4cc5c(-c6cccs6)nccc5[nH]4)c3c2)c1)C1CCC1"
  Value Observed: 10
- Chemical Structure: "c1cnc2cc(-c3n[nH]c4ccc(-c5cncc(CN6CCCCC6)c5)cc34)[nH]c2c1"
  Value Observed: 2
- Chemical Structure: "O=C(Nc1ccc(OCCN2CCCC2)cc1)c1n[nH]cc1/C=C/c1cccnc1"
  Value Observed: 6

// each listed compound needs a value for EC50
1. O=C(CC1CCNCC1)Nc1cncc(-c2ccc3[nH]nc(-c4cc5c(-c6ccoc6)ccnc5[nH]4)c3n2)c1
2. Cc1ccc(-c2cccc3[nH]c(-c4n[nH]c5ccc(-c6cncc(N)c6)nc45)nc23)s1

11
2

// each listed compound needs a value for EC50
1. CCCC(=O)Nc1cncc(-c2cnc3[nH]nc(-c4nc5c(-c6ccccc6F)cncc5[nH]4)c3c2)c1
2. CC(C)(C)CC(=O)Nc1cncc(-c2ccc3[nH]nc(-c4cc5c(-c6ccoc6)ccnc5[nH]4)c3c2)c1
3. Cn1cc(-c2ccc3cnc(NC(=O)c4ccc5c(c4)ncn5C)cc3c2)cn1
4. Cc1cn(-c2cncc3[nH]c(-c4n[nH]c5ccc(-c6cncc(NC(=O)CC(C)C)c6)cc45)nc23)cn1

7
12
3
2

// each listed compound needs a value for EC50
1. CN1CCC(n2cc(C(=O)Nc3cc4cc(-c5cnn(C)c5)ccc4cn3)cn2)CC1
2. COc1cncc(C#Cc2c[nH]nc2C(=O)Nc2ccc(OCCN3CCCC3)nc2)c1
3. CC(C)(C)CC(=O)Nc1cncc(-c2ccc3[nH]nc(-c4nc5ccncc5[nH]4)c3n2)c1
4. Cc1cn(-c2nccc3[nH]c(-c4n[nH]c5ccc(-c6cncc(NC(=O)C(C)(C)C)c6)nc45)nc23)cn1
5. CN1CCN(c2cc(C(=O)Nc3cc4nc(-c5cnn(C)c5)ccc4cn3)ccn2)CC1

1: 1; 2: 28; 3: 11; 4: 3; 5: 4
